Please provide measured remaining activity at 30 µM for the entries that follow.
- Assay target: Human M4 (Homo sapiens, UniProt P08173)
- Construct: expressed in transfected cells; host or cells: CHO-K1 (ATCC), co-transfected with chimeric G protein Gqi5
- Sequence (P08173 1-479): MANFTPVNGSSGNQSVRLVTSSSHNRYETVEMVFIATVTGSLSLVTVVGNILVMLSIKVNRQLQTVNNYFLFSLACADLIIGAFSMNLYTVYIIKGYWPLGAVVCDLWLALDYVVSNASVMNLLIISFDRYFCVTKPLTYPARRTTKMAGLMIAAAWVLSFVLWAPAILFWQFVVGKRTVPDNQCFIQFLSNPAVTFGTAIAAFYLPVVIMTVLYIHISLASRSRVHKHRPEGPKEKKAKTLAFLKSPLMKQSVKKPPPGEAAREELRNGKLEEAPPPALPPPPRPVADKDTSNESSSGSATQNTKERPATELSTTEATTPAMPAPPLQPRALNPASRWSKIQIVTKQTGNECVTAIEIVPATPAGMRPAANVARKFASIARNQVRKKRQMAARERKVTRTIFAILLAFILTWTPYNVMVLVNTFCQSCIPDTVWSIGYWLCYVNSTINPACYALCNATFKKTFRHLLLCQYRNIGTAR
- Procedure text: mAChR M4 cell-based functional assay (calcium flux, antagonism of EC80 acetylcholine response)
- Conditions: CHO-K1, % ACh maximum at 30 μM; M4/Gqi5/CHO-K1 cells; read-out: Human M4 Emin
Report the figure in % without appending any unit label.

input: Supply reported remaining activity at 30 µM belonging to this compound: [2H]C([2H])(C1CCOCC1)N1C[C@H]2C[C@H](Nc3nnc(-c4cc(F)cc(F)c4F)cc3C(F)F)C[C@H]2C1
output: 3

input: Supply reported remaining activity at 30 µM belonging to this compound: [2H]C([2H])(C1CCOCC1)N1C[C@H]2C[C@H](Nc3nnc(-c4ccc5nn(C)cc5c4C)cc3C)C[C@H]2C1
output: 3

input: Supply reported remaining activity at 30 µM belonging to this compound: [2H]C([2H])(C1CCOCC1)N1C[C@H]2C[C@H](Nc3nnc(-c4cc(F)cc(F)c4F)cc3C(C)(F)F)C[C@H]2C1
output: 3

input: Supply reported remaining activity at 30 µM belonging to this compound: COc1cc(-c2ccc3nn(C)cc3c2)nnc1N[C@H]1C[C@@H]2CN(CC3CCOCC3)C[C@@H]2C1
output: 3

input: Supply reported remaining activity at 30 µM belonging to this compound: Cc1cc(N[C@H]2C[C@@H]3CN(CC4CCOCC4)C[C@@H]3C2)nnc1-c1ccc2nn(C)cc2c1
output: 3

input: Supply reported remaining activity at 30 µM belonging to this compound: Fc1cc(F)c(F)c(-c2nnc(N[C@H]3C[C@@H]4CN(CC5CCCCO5)C[C@@H]4C3)cc2C(F)F)c1 (single isomer, unassigned)
output: 3

input: Supply reported remaining activity at 30 µM belonging to this compound: [2H]C([2H])(C1CCOCC1)N1C[C@H]2C[C@H](Nc3nnc(-c4cc(F)cc(F)c4F)cc3C3CC3)C[C@H]2C1
output: 2

input: Supply reported remaining activity at 30 µM belonging to this compound: Cc1c(-c2cc(C(F)F)c(N[C@H]3C[C@@H]4CN(CC5CCOCC5)C[C@@H]4C3)nn2)ccc2nn(C)cc12
output: 3

input: Supply reported remaining activity at 30 µM belonging to this compound: OC1(CN2C[C@H]3C[C@H](Nc4cc(C(F)F)c(-c5cc(F)cc(F)c5F)nn4)C[C@H]3C2)CCCCC1
output: 1

input: Supply reported remaining activity at 30 µM belonging to this compound: Cc1ccc(F)cc1-c1cc(C(F)F)c(N[C@H]2C[C@@H]3CN(CC4CCOCC4)C[C@@H]3C2)nn1
output: 3

input: Supply reported remaining activity at 30 µM belonging to this compound: [2H]C([2H])(C1CCOCC1)N1C[C@H]2C[C@H](Nc3nnc(-c4cc(F)ccc4F)cc3C3CC3)C[C@H]2C1
output: 4

input: Supply reported remaining activity at 30 µM belonging to this compound: [2H]C([2H])(C1CCOCC1)N1C[C@H]2C[C@H](Nc3nnc(-c4ccc(F)cc4)c(C)c3C)C[C@H]2C1
output: 11

input: Supply reported remaining activity at 30 µM belonging to this compound: [2H]C([2H])(C1CCOCC1)N1C[C@H]2C[C@H](Nc3nnc(-c4cc(F)ccc4C)c(C)c3C)C[C@H]2C1
output: 2
